Data provenance: patent US9078442B2

Kindly supply the reported Activity [%] (efficacy) values for the records listed here.
System: Mycosphaerella graminicola
Assay: In vivo test Mycosphaerella graminicola (wheat)
Conditions: Mycosphaerella graminicola on wheat, application rate 500 g/ha, evaluation 21-28 days after inoculation
Express the result in % but write the number alone.

Input: What Activity [%] (efficacy) value was documented for this compound, CCn1cc(CNC(=O)C2(C)CC(c3cccc(Cl)c3)=NO2)c(C)n1 (centres unmarked) ?
Output: 79

Input: Fill in: Activity [%] (efficacy) of CC(C)(C)NC(=O)C1(C)CC(c2cc(Cl)cc(Cl)c2)=NO1 (centres unmarked) is ___
Output: 91

Input: Which measured Activity [%] (efficacy) value corresponds to CC(C)NC(=O)C1(C)CC(c2cc(Br)cc(C(F)(F)F)c2)=NO1 (centres unmarked) ?
Output: 100

Input: Query: Activity [%] (efficacy); subject: CC1(C(=O)NC2CC2)CC(c2cc(Cl)cc(Cl)c2)=NO1 (centres unmarked)
Output: 100

Input: # input compound: CCn1cc(CNC(=O)C2(C)CC(c3cc(C)cc(Cl)c3)=NO2)c(C)n1 (centres unmarked) ; wanted: its Activity [%] (efficacy)
Output: 85

Input: What value of Activity [%] (efficacy) has been recorded for this entry: CC1(C(=O)Nc2ccc(C(=O)O)cc2)CC(c2cc(Cl)cc(Cl)c2)=NO1 (centres unmarked)
Output: 75

Input: I am curious: what Activity [%] (efficacy) value has been reported for CC1(C(=O)NCC2CCCO2)CC(c2cc(Cl)cc(Cl)c2)=NO1 (mixture of isomers) ?
Output: 100

Input: Which Activity [%] (efficacy) value is on record for CC(C)NC(=O)C1(C)CC(c2cc(Cl)cc(C(F)(F)F)c2)=NO1 (centres unmarked) ?
Output: 100
